Hey, just so you know, these numbers are from the RNAGym collection of RNA variant scans (doi:10.1101/gr.219683.116).

B1: mRNA-splicing (parent)
chain: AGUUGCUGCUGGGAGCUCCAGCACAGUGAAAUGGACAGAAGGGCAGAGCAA

# Variants of: B1
# experimentDescription: exon inclusion enrichment index; higher = more inclusion; WT1 exon 5 minigene, HEK293
Values of exon inclusion enrichment index greater than or equal to 2 map to condition met; values below map to condition not met.

>>> classname("G5A C6G U7G C9A U10A G11C")
"condition not met"
>>> classname("G5C C6U G8C C9U U10C A40U G41C")
"condition met"
>>> classname("G5A C6G U7G C9A A45G")
"condition not met"
>>> classname("G5C C6A U7C G8A U10A A47G G48U")
"condition not met"
>>> classname("G5C C6A U7C G8A G11U")
"condition not met"
>>> classname("A29U")
"condition not met"
>>> classname("G26U U27C")
"condition not met"
>>> classname("G5C C6U G8C C9U U10C C44A A45U")
"condition met"
>>> classname("G5A U7C G8A U10C A47C G48A")
"condition not met"
>>> classname("G5A U7C G8A U10C G34C A35C")
"condition not met"
>>> classname("G5A U7C G8A U10C C19G A20U")
"condition met"
>>> classname("U3G")
"condition not met"
